Biological target: T1, human GIP receptor (human) (UniProt P48546)
T1 sequence (looked up): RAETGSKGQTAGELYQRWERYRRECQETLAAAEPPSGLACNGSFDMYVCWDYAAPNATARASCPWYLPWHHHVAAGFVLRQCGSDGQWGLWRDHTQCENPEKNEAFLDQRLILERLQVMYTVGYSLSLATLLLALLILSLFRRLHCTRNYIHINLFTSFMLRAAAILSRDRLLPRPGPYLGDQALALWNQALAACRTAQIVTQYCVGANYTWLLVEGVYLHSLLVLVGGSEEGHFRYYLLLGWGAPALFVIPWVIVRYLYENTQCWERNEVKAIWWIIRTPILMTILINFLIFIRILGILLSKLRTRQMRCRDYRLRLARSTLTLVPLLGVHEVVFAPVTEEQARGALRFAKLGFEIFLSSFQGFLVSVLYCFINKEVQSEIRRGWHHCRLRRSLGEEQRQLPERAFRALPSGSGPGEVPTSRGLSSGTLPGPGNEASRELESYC
Test: cell-based or functional assay
Starred links: 1 amine or outer side, 2 acyl side, 3 side chain; linkers in the order of their positions; H or OH if unused. Non-standard residues stand in square brackets, D forms with d. Groups on a side chain read outwards from the residue. No end group written: not given here. *: point of attachment. C20 diacid = O=C(O)CCCCCCCCCCCCCCCCCCC(=O)*; γGlu = O=C(O)[C@H](CCC(=O)[*:2])N[*:1]; αMeL = CC(C)C[C@](C)(N)C(=O)O; AEEA = NCCOCCOCC(=O)O; Aib = CC(C)(N)C(=O)O
Assign Yes to entries whose Relative cAMP EC50 meets or exceeds 0.3 nM; assign No to the rest.

Some solved cases for reference:
YXQGTXTSDXSILLDKKAQXAFIEYLEEGGPSSGAPPPSGAGE (Aib, αMeF(2F), 4Pal; acylated K; C-terminal amide; synthetic construct; SITE 2: note = 2-Aminoisobutyric Acid; SITE 6: note = alpha-methyl-2-fluoro-L-phenylalanine; SITE 10: note = 3-(4-Pyridyl)-L-alanine; SITE 17: note = Lysine is chemically modified through conjugation of the epsilon-amino group of the Lysine side chain with (gamma-Glu)2-CO-(CH2)1) [Example 620]	No
YXQGTFTSDFSXXLDKKAQXAFIEYLLEXGPSSGEPPPGEG (synthetic construct; SITE 2: note = 2-Aminoisobutyric Acid; SITE 12: note = L-ornithine; SITE 13: note = alpha-methyl-leucine; SITE 17: note = Lysine is chemically modified through conjugation of the epsilon-amino group of the Lysine side chain with (2-[2-(2-Amino-ethoxy)-ethoxy]-acetyl)2-(gamma-Glu)) [Example 69]	No
Y[Aib]QGTFTSDYSK[αMeL]LDKKAQQAFVQWLIE[dA]GPSSGEPPPSEG-NH2 (not fully specified (residue 17)) [Example 342]	Yes
Y[Aib]QGTFTSDYSK[αMeL]LDKK([AEEA-γGlu-C20 diacid])AQQAFIQWLIEGGPSSGEPPPSEG-NH2 [Example 314]	Yes

Query block: Form field: Relative cAMP EC50 at least 0.3 nM? Entry: YXQGTFTSDFSKXLDKKAQXAFIEYLLEGAPSSGAPPPSEG (synthetic construct; SITE 2: note = 2-Aminoisobutyric Acid; SITE 13: note = alpha-methyl-leucine; SITE 17: note = Lysine is chemically modified through conjugation of the epsilon-amino group of the Lysine side chain with (2-[2-(2-Amino-ethoxy)-ethoxy]-acetyl)-(gamma-Glu)-CO-(CH2) 18-CO2H; SITE 20: n) [Example 47]
Result block: Yes

All figures here come from patent US20240270821A1.
